- Test system: Drosophila melanogaster
- MEASUREMENT PROTOCOL: Selectivity ratio of Ki of Nicotinic acetylcholine receptor of Drosophila to Nicotinic acetylcholine receptor alpha4-beta2
ATTRIBUTE MEASURED: Selectivity
Give your answer as a number; write no unit.

COMPOUND: O=[N+]([O-])Nc1nccn1Cc1ccc(Cl)nc1 [DEHYDROIMIDACLOPRID]
TEST SYSTEM: Drosophila melanogaster
Selectivity: 553
//
COMPOUND: [N-]=[N+]=Nc1cc(Cn2ccnc2N[N+](=O)[O-])cnc1Cl
TEST SYSTEM: Drosophila melanogaster
Selectivity: 23
//
COMPOUND: [N-]=[N+]=Nc1cc(Cl)ncc1Cn1ccsc1=N
TEST SYSTEM: Drosophila melanogaster
Selectivity: 29
//
COMPOUND: [N-]=[N+]=Nc1cc(Cn2ccs/c2=N\[N+](=O)[O-])cnc1Cl
TEST SYSTEM: Drosophila melanogaster
Selectivity: 44
//
COMPOUND: [N-]=[N+]=Nc1cncc(Cn2ccsc2=N)c1
TEST SYSTEM: Drosophila melanogaster
Selectivity: 867
//
COMPOUND: N=c1sccn1Cc1ccc(Cl)nc1
TEST SYSTEM: Drosophila melanogaster
Selectivity: 256

Now turn to the next compound.
Please fill in: Selectivity reported for "[N-]=[N+]=Nc1ccncc1Cn1ccsc1=N" = 36
